# System: B. cepacia
# Protocol details: FIC checkerboard assay
# Assay type: cell-based
# Run conditions: during FIC testing; B. cepacia isolate 0546
Measurement label: MIC
Could you give the number and then its unit, please?

# Structure notation, Assayed target, MIC
measured = [
    ("C[C@@H](O)[C@H]1C(=O)N2C(C(=O)O)=C(S[C@@H]3CN[C@H](C(=O)N(C)C)C3)[C@H](C)[C@H]12", "B. cepacia", "4 µg/mL"),
    ("NCC[C@H](O)C(=O)N[C@@H]1C[C@H](N)[C@@H](O[C@H]2O[C@H](CN)[C@@H](O)[C@H](O)[C@H]2O)[C@H](O)[C@H]1O[C@H]1O[C@H](CO)[C@@H](O)[C@H](N)[C@H]1O", "B. cepacia", "64 µg/mL"),
    ("C[C@H]1[C@H](NC(=O)/C(=N\\OC(C)(C)C(=O)O)c2csc(N)n2)C(=O)N1S(=O)(=O)O", "B. cepacia", "32 µg/mL"),
]

// moving on: another record for MIC
Item "NC[C@H]1O[C@H](O[C@H]2[C@H](O)[C@@H](O[C@H]3O[C@H](CO)[C@@H](O)[C@H](N)[C@H]3O)[C@H](N)C[C@@H]2N)[C@H](N)C[C@@H]1O" ; assay system B. cepacia; MIC reported as 32 µg/mL

###

Reported MIC by item:
# System: Staphylococcus aureus (MRSA)
# Protocol details: Broth microdilution MIC (Example 11)
# Run conditions: ATCC29213|MRSA|MSSA, S. aureus MMX 101 (ATCC 29213), QC, MSSA
Reply with just the number (in µg/mL).

# Molecule, Assayed target, Value units, MIC
measured = [
    ("CCC[C@@H]1C[C@@H](C(=O)N[C@@H]([C@H]2O[C@H](SC)[C@H](O)[C@@H](O)[C@H]2O)[C@H](C)Cl)N(C)C1", "Staphylococcus aureus (MRSA)", "µg/mL", 0.12),
    ("CC(C)(O/N=C(\\C(=O)N[C@@H]1C(=O)N2C(C(=O)[O-])=C(C[n+]3ccccc3)CS[C@H]12)c1csc(N)n1)C(=O)O", "Staphylococcus aureus (MRSA)", "µg/mL", 8),
    ("CN[C@H](CC(C)C)C(=O)N[C@H]1C(=O)N[C@@H](CC(N)=O)C(=O)N[C@H]2C(=O)N[C@H]3C(=O)N[C@H](C(=O)N[C@H](C(=O)O)c4cc(O)cc(O)c4-c4cc3ccc4O)[C@H](O)c3ccc(c(Cl)c3)Oc3cc2cc(c3O[C@@H]2O[C@H](CO)[C@@H](O)[C@H](O)[C@H]2O[C@H]2C[C@](C)(N)[C@H](O)[C@H](C)O2)Oc2ccc(cc2Cl)[C@H]1O", "Staphylococcus aureus (MRSA)", "µg/mL", 1),
    ("CC[C@H]1OC(=O)[C@H](C)[C@@H](O[C@H]2C[C@@](C)(OC)[C@@H](O)[C@H](C)O2)[C@H](C)[C@@H](O[C@@H]2O[C@H](C)C[C@H](N(C)C)[C@H]2O)[C@](C)(O)C[C@@H](C)C(=O)[C@H](C)[C@@H](O)[C@]1(C)O", "Staphylococcus aureus (MRSA)", "µg/mL", 0.5),
]

Item C[C@@H](O)[C@H]1C(=O)N2C(C(=O)O)=C(S[C@@H]3CN[C@H](C(=O)N(C)C)C3)[C@H](C)[C@H]12 [Meropenem, reference compound] ; assay system Staphylococcus aureus (MRSA); MIC reported as 0.06

Item C[C@H]1COc2c(N3CCN(C)CC3)c(F)cc3c(=O)c(C(=O)O)cn1c23 [Levofloxacin, reference compound] ; assay system Staphylococcus aureus (MRSA); MIC reported as 0.12

###

# System: Escherichia coli
# Protocol details: Broth microdilution MIC (Example 12)
# Run conditions: E. coli MMX 5758; ESBL
Measurement label: MIC (µg/mL)
Reply with just the number (in µg/mL).

# Structure notation, MIC, µg/mL
rows = [
    ("NCC[C@H](O)C(=O)N[C@@H]1C[C@H](N)[C@@H](O[C@H]2O[C@H](CN)[C@@H](O)[C@H](O)[C@H]2O)[C@H](O)[C@H]1O[C@H]1O[C@H](CO)[C@@H](O)[C@H](N)[C@H]1O", 1),
    ("CC(C)(O/N=C(\\C(=O)N[C@@H]1C(=O)N2C(C(=O)[O-])=C(C[n+]3ccccc3)CS[C@H]12)c1csc(N)n1)C(=O)O", 16),
]

The measured MIC associated with "C[C@H]1COc2c(N3CCN(C)CC3)c(F)cc3c(=O)c(C(=O)O)cn1c23" reads 8

###

# Protocol details: Particle size distribution of BisEDT samples vs processing conditions (Table 111)
# Format: physicochemical
# Run conditions: BisEDT sample
Measurement label: D (50) (μm)
Reply with just the number (in μm).

For orientation, consider the following solved cases.
# Compound, D (50) [μm]
rows = [
    ("C1C[S][Bi]([S]CC[S][Bi]2[S]CC[S]2)[S]1 [Sample 7]", 1.3),
    ("C1C[S][Bi]([S]CC[S][Bi]2[S]CC[S]2)[S]1 [Sample 4]", 1.48),
    ("C1C[S][Bi]([S]CC[S][Bi]2[S]CC[S]2)[S]1.SCCS [Sample 3]", 1.9),
    ("C1C[S][Bi]([S]CC[S][Bi]2[S]CC[S]2)[S]1 [Sample 6]", 0.87),
    ("C1C[S][Bi]([S]CC[S][Bi]2[S]CC[S]2)[S]1 [Sample 2]", 1.7),
    ("C1C[S][Bi]([S]CC[S][Bi]2[S]CC[S]2)[S]1 [Sample 13]", 0.98),
    ("C1C[S][Bi]([S]CC[S][Bi]2[S]CC[S]2)[S]1 [Sample 5]", 0.72),
    ("C1C[S][Bi]([S]CC[S][Bi]2[S]CC[S]2)[S]1 [Sample 8]", 1.0),
    ("C1C[S][Bi]([S]CC[S][Bi]2[S]CC[S]2)[S]1 [Sample 11]", 1.2),
    ("C1C[S][Bi]([S]CC[S][Bi]2[S]CC[S]2)[S]1 [Sample 15]", 0.72),
]

The measured D (50) associated with C1C[S][Bi]([S]CC[S][Bi]2[S]CC[S]2)[S]1.SCCS [Sample 1] reads 2.4

The measured D (50) associated with C1C[S][Bi]([S]CC[S][Bi]2[S]CC[S]2)[S]1 [Sample 10] reads 0.88

The measured D (50) associated with C1C[S][Bi]([S]CC[S][Bi]2[S]CC[S]2)[S]1 [Sample 12] reads 1.2

The measured D (50) associated with C1C[S][Bi]([S]CC[S][Bi]2[S]CC[S]2)[S]1 [Sample 9] reads 1.0

The measured D (50) associated with C1C[S][Bi]([S]CC[S][Bi]2[S]CC[S]2)[S]1 [Sample 14] reads 1.0

###

# System: S. agalactiae
# Protocol details: Broth microdilution MIC (Example 11)
# Run conditions: Streptococcus agalactiae, S. agalactiae MMX 4077; ERY^R CC^R
Reported MIC by item:
Reply with just the number (in µg/mL).

# Compound, Assayed target, Value units, Data value
measured = [
    ("CN[C@H](CC(C)C)C(=O)N[C@H]1C(=O)N[C@@H](CC(N)=O)C(=O)N[C@H]2C(=O)N[C@H]3C(=O)N[C@H](C(=O)N[C@H](C(=O)O)c4cc(O)cc(O)c4-c4cc3ccc4O)[C@H](O)c3ccc(c(Cl)c3)Oc3cc2cc(c3O[C@@H]2O[C@H](CO)[C@@H](O)[C@H](O)[C@H]2O[C@H]2C[C@](C)(N)[C@H](O)[C@H](C)O2)Oc2ccc(cc2Cl)[C@H]1O [vancomycin]", "S. agalactiae", "µg/mL", 0.5),
    ("C[C@H]1COc2c(N3CCN(C)CC3)c(F)cc3c(=O)c(C(=O)O)cn1c23 [Levofloxacin, reference compound]", "S. agalactiae", "µg/mL", 0.5),
]

The measured MIC associated with CC1(C)S[C@@H]2[C@H](NC(=O)Cc3ccccc3)C(=O)N2[C@H]1C(=O)O [Penicillin] reads 0.06

###

Reported MIC by item:
# System: Acinetobacter baumannii
# Protocol details: Broth microdilution MIC (Example 11)
# Run conditions: Acinetobacter baumannii, A. baumannii MMX 3373; Sensitive
Reply with just the number (in µg/mL).

For orientation, consider the following solved cases.
# Molecule, Value units, MIC
measured = [
    ("CC(S)C(C)S.[Bi] (stereo not shown)", "µg/mL", 0.5),
    ("CC(C)(O/N=C(\\C(=O)N[C@@H]1C(=O)N2C(C(=O)[O-])=C(C[n+]3ccccc3)CS[C@H]12)c1csc(N)n1)C(=O)O", "µg/mL", 4),
    ("C[C@@H](O)[C@H]1C(=O)N2C(C(=O)O)=C(S[C@@H]3CN[C@H](C(=O)N(C)C)C3)[C@H](C)[C@H]12 [Meropenem, reference compound]", "µg/mL", 0.5),
]

// moving on: another record for MIC
The measured MIC associated with C[C@H]1COc2c(N3CCN(C)CC3)c(F)cc3c(=O)c(C(=O)O)cn1c23 [Levofloxacin, reference compound] reads 0.12
